Target: Sucrase-isomaltase, intestinal (Homo sapiens, UniProt P14410)
Sequence (P14410 2-1007 limits assumed): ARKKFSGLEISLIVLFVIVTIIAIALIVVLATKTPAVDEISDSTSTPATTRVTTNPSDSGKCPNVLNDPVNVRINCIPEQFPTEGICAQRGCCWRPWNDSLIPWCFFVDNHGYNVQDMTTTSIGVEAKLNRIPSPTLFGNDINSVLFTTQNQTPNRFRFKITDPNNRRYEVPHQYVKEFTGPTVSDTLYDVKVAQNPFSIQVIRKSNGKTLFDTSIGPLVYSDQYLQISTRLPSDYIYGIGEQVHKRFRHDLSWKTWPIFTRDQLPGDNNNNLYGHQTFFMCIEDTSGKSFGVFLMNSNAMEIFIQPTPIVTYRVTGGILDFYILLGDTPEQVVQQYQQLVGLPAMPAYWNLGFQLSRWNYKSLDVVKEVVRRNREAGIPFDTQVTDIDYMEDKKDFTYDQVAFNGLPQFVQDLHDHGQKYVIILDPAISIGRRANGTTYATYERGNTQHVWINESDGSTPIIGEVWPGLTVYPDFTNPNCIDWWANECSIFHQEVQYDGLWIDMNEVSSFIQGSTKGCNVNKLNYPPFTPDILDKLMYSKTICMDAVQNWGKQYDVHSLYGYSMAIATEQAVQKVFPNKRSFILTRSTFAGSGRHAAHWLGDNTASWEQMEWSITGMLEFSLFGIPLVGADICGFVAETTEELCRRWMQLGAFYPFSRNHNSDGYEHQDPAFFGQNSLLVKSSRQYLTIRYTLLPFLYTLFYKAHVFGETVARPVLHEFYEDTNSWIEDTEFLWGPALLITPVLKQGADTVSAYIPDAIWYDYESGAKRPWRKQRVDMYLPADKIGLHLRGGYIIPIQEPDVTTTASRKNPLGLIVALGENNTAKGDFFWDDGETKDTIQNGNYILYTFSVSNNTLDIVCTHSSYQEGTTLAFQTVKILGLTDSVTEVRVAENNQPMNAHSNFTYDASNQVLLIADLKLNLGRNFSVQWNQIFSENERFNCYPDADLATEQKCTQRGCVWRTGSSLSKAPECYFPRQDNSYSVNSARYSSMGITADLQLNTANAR
Sequence (P14410 1008-1827 limits assumed): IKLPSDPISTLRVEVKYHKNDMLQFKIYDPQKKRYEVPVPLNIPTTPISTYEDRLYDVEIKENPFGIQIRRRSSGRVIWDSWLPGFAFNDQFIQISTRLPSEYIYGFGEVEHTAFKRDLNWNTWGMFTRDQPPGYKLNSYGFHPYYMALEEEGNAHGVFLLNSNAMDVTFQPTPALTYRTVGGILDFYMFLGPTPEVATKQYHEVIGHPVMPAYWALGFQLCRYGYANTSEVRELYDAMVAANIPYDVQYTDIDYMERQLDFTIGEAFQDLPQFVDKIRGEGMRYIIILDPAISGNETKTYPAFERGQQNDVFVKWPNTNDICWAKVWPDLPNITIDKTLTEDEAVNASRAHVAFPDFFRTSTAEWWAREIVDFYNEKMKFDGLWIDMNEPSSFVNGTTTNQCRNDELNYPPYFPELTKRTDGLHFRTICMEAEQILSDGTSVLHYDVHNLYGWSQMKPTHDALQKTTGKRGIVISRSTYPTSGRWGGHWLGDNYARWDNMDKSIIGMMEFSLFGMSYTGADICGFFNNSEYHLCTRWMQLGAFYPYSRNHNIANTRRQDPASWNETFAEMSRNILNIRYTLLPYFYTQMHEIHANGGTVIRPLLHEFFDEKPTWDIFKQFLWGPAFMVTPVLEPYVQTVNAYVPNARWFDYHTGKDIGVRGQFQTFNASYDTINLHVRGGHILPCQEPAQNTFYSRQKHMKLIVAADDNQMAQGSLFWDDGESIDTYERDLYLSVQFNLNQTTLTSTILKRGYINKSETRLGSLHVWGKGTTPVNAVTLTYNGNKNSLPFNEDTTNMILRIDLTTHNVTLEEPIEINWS
pIC50: −log10 of the molar value.

{"columns": ["givenSmiles", "valueQualifier", "pIC50"],
 "data": [
  ["OC[C@H]1[C@@H](O)[C@H](O)[C@@H](O)CN1CCCCCOCc1ccc(-c2ccccc2)cc1C(F)(F)F", "<", 4.00],
  ["C[C@H](OCCCCCN1C[C@H](O)[C@@H](O)[C@H](O)[C@H]1CO)c1ccc(-c2ccccc2)cc1", "=", 6.60],
  ["OC[C@H]1[C@@H](O)[C@H](O)[C@@H](O)CN1CCCCCOCc1ccccc1-c1ccccc1", "=", 4.02],
  ["OC[C@H]1[C@@H](O)[C@H](O)[C@@H](O)CN1CCCCCOCc1ccc(-c2ccccc2)cc1F", "<", 4.00],
  ["OC[C@@H]1[C@@H](O)[C@H](O)[C@@H](O)CN1CCCCCOCc1ccc(-c2ccccc2)c(C(F)(F)F)c1", "=", 5.90]
]}
